Where these numbers come from: patent US6355648B1

Parameter melting point: see the listing below.
Measured parameter: melting point

[[record]]
compound = "CC1(C)C(=S)Nc2ccc(-c3cccc(Cl)c3)cc21"
measured_parameter = "melting point"
assay_value = "158 to 160 °C"

[[record]]
compound = "COc1cccc(-c2ccc3c(c2)C(C)(C)C(=S)N3)c1"
measured_parameter = "melting point"
assay_value = "149 to 150 °C"

[[record]]
compound = "Cc1cc(C(N)=S)sc1-c1ccc2c(c1)C1(CCCCC1)C(=S)N2"
measured_parameter = "melting point"
assay_value = "244 to 249 °C"

[[record]]
compound = "N#Cc1cc(-c2ccc3c(c2)C2(CCCCC2)C(=S)N3)cs1"
measured_parameter = "melting point"
assay_value = "230 to 232 °C"

[[record]]
compound = "S=C1Nc2ccc(-c3cccc(Cl)c3)cc2C12CCCCC2"
measured_parameter = "melting point"
assay_value = "223 to 227 °C"

[[record]]
compound = "N#Cc1cc(F)cc(-c2ccc3c(c2)C2(CCCCC2)C(=S)N3)c1"
measured_parameter = "melting point"
assay_value = "236 to 250 °C"

[[record]]
compound = "CC1(Cc2ccccc2)C(=S)Nc2ccc(-c3cccc(Cl)c3)cc21 (stereo not shown)"
measured_parameter = "melting point"
assay_value = "168 to 170 °C"

